tested on: 5-HT4 receptor (Rattus norvegicus); experiment: Agonistic activity against 5-hydroxytryptamine 4 receptor
Intrinsic activity of 0.5 or higher: y. Under 0.5: n.

smiles_record=CC(C)n1c(=O)n(C(=O)NN2CCN(C)CC2)c2ccccc21 category=n
smiles_record=CC(C)n1c(=O)n(C(=O)NCCN2CC[N+](C)(C)CC2)c2ccccc21 category=y
smiles_record=CCCCN1CCN(CCNC(=O)n2c(=O)n(CC)c3ccccc32)CC1 category=n
smiles_record=CCCCn1c(=O)n(C(=O)NCCN2CCN(C)CC2)c2ccccc21 category=n
smiles_record=CN1CCN(CCNC(=O)n2c(=O)n(C)c3ccccc32)CC1 category=n
smiles_record=CC(C)n1c(=O)n(C(=O)NCCN2CCN(C)CC2)c2cc(F)ccc21 category=y
smiles_record=CN1CCN(CCCNC(=O)n2c(=O)n(C3CC3)c3ccccc32)CC1 category=n
smiles_record=CCCn1c(=O)n(C(=O)NCCN2CCN(C)CC2)c2ccccc21 category=n
smiles_record=CC(C)n1c(=O)n(C(=O)NCCN2CCN(C)CC2)c2cc(Cl)ccc21 category=y
smiles_record=CCCCN1CCN(CCNC(=O)n2c(=O)n(C3CC3)c3ccccc32)CC1 category=n
smiles_record=CN1CCN(CNC(=O)n2c(=O)n(C3CC3)c3ccccc32)CC1 category=y

----------
target: Serotonin 3 (5-HT3) receptor (Rattus norvegicus, UniProt P35563+Q9JJ16); experiment: Inhibitory concentration against 5-hydroxytryptamine 3 receptor in rat entorhinal cortex using [3H]-LY 278584 as radioligand
Sequence (P35563 whole entry): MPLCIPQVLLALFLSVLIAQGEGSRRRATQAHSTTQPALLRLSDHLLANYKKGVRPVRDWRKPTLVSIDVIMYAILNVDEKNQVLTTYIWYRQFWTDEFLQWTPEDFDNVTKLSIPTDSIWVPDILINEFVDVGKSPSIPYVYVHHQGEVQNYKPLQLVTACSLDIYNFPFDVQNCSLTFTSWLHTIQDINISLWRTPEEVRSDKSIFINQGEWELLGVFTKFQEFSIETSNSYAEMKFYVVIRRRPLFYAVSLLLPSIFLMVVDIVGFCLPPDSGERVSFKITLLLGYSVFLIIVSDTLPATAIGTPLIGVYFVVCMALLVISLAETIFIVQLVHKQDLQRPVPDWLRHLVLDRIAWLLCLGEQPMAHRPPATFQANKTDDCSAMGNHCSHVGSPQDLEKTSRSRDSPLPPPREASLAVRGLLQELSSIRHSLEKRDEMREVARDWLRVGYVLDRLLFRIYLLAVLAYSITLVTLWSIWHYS
Sequence (Q9JJ16 whole entry): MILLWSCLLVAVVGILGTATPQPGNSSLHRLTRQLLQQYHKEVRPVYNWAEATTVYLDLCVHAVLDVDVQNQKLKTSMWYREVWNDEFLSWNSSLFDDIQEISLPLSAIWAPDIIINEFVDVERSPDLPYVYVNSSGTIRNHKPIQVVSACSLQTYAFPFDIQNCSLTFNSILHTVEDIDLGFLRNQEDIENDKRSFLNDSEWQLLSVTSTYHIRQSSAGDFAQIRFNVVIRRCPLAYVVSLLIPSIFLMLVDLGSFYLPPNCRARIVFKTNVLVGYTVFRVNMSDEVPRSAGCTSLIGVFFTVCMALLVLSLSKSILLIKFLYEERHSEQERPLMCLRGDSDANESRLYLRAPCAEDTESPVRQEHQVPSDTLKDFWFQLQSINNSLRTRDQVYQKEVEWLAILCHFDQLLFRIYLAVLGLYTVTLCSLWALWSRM
Listing of recorded IC50 by entry.
QUANTITY KIND: IC50

smiles_record=CC(C)n1c(=O)n(C(=O)NCCN2CC[N+](C)(C)CC2)c2ccccc21 reported="> 1000 nM"
smiles_record=CC(C)N1CCN(CCNC(=O)n2c(=O)n(C3CC3)c3ccccc32)CC1 reported="> 1000 nM"
smiles_record=CC(C)n1c(=O)n(C(=O)NCCN2CCN(C)CC2)c2cc(Cl)ccc21 reported="> 1000 nM"
smiles_record=CC(C)n1c(=O)n(C(=O)NCCN2CCN(C)CC2)c2cc(F)c([N+](=O)[O-])cc21 reported="> 1000 nM"
smiles_record=CCCn1c(=O)n(C(=O)NCCN2CCN(C)CC2)c2ccccc21 reported="> 1000 nM"
smiles_record=CC(C)n1c(=O)n(C(=O)NCCN2CCN(C)CC2)c2ccccc21 reported="> 1000 nM"
smiles_record=CCn1c(=O)n(C(=O)NCCN2CCN(C)CC2)c2ccccc21 reported="> 1000 nM"
smiles_record=CC(C)n1c(=O)n(C(=O)NCCN2CCN(C)CC2)c2cc(F)c(N)cc21 reported="> 1000 nM"
smiles_record=CN1CCN(CNC(=O)n2c(=O)n(C3CC3)c3ccccc32)CC1 reported="> 1000 nM"
smiles_record=CCCCn1c(=O)n(C(=O)NCCN2CCN(C)CC2)c2ccccc21 reported="> 1000 nM"
smiles_record=CCCN1CCN(CCNC(=O)n2c(=O)n(CC)c3ccccc32)CC1 reported="> 1000 nM"
smiles_record=CC(C)N1CCN(CCNC(=O)n2c(=O)n(C(C)C)c3ccccc32)CC1 reported="> 1000 nM"
smiles_record=Cn1cc(C(=O)OCC2CCN(CCNS(C)(=O)=O)CC2)c2ccccc21 reported="> 1000 nM"
smiles_record=C=CC[N+]1(C)CCN(CCNC(=O)n2c(=O)n(C(C)C)c3ccccc32)CC1 reported="> 1000 nM"
smiles_record=CCN1CCN(CCNC(=O)n2c(=O)n(CC)c3ccccc32)CC1 reported="> 1000 nM"
smiles_record=CCCCN1CCN(CCNC(=O)n2c(=O)n(C3CC3)c3ccccc32)CC1 reported="> 1000 nM"
smiles_record=CCN1CCN(CCNC(=O)n2c(=O)n(C(C)C)c3ccccc32)CC1 reported="> 1000 nM"
smiles_record=CN1CCN(CCNC(=O)n2c(=O)n(CCc3ccccc3)c3ccccc32)CC1 reported="> 1000 nM"
smiles_record=CC(C)n1c(=O)n(C(=O)NCCCN2CCN(C)CC2)c2ccccc21 reported="> 1000 nM"
smiles_record=COc1ccc2c(c1)n(C(=O)NCCN1CCN(C)CC1)c(=O)n2C(C)C reported="> 1000 nM"
smiles_record=CN1CCN(CCCNC(=O)n2c(=O)n(C3CC3)c3ccccc32)CC1 reported="> 1000 nM"
smiles_record=CCCN1CCN(CCNC(=O)n2c(=O)n(C3CC3)c3ccccc32)CC1 reported="> 1000 nM"
smiles_record=CCCN1CCN(CCNC(=O)n2c(=O)n(C(C)C)c3ccccc32)CC1 reported="> 1000 nM"
smiles_record=CN1CCN(CCNC(=O)n2c(=O)n(C3CC3)c3ccccc32)CC1 reported="> 1000 nM"
smiles_record=C=CCn1c(=O)n(C(=O)NCCN2CCN(C)CC2)c2ccccc21 reported="> 1000 nM"
smiles_record=CN1CCN(CCNC(=O)n2c(=O)n(C)c3ccccc32)CC1 reported="> 1000 nM"
smiles_record=CCCCN1CCN(CCNC(=O)n2c(=O)n(CC)c3ccccc32)CC1 reported="> 1000 nM"
smiles_record=CC(C)n1c(=O)n(C(=O)NCCN2CCN(CCCOc3ccc(F)cc3)CC2)c2ccccc21 reported="> 1000 nM"
smiles_record=CC(C)n1c(=O)n(C(=O)NCCN2CCN(C)CC2)c2cc(F)ccc21 reported="> 1000 nM"
smiles_record=CC(C)n1c(=O)n(C(=O)NCCN2CCN(Cc3ccc4c(c3)OCO4)CC2)c2ccccc21 reported="> 1000 nM"
smiles_record=CCCCN1CCN(CCNC(=O)n2c(=O)n(C(C)C)c3ccccc32)CC1 reported="> 1000 nM"
smiles_record=CCn1c(=O)n(C(=O)NCCN2CCN(C(C)C)CC2)c2ccccc21 reported="> 1000 nM"
smiles_record=CCCC[N+]1(C)CCN(CCNC(=O)n2c(=O)n(C(C)C)c3ccccc32)CC1 reported="> 1000 nM"
smiles_record=CC(C)n1c(=O)n(C(=O)NCCN2CCN(Cc3ccc(F)cc3)CC2)c2ccccc21 reported="> 1000 nM"
smiles_record=CN1CCN(CCNC(=O)n2c(=O)n(Cc3ccccc3)c3ccccc32)CC1 reported="> 1000 nM"
smiles_record=CN1CCN(CCNC(=O)n2c(=O)[nH]c3ccccc32)CC1 reported="> 1000 nM"
